# Lookup of reported pKd keyed by entry
MEASURED_TARGET: feline FcRn complex (FcRn-α subunit and β-microglobulin), biotin labeled (feline)
TEST_SUMMARY: SPR, pH 7.4
pKd: −log10 of the molar value.

- BINDER: "feline IgG1a S428Y/D312P (antibody, part only; not given: Variable domains, not shown: another chain or arm of the molecule; small tags and cut ends) constant: ASTTAPSVFPLAPSCGTTSGATVALACLVLGYFPEPVTVSWNSGALTSGVHTFPAVLQASGLYSLSSMVTVPSSRWLSDTFTCNVAHPPSNTKVDKTVRKTDHPPGPKPCDCPKCPPPEMLGGPSIFIFPPKPKDTLSISRTPEVTCLVVDLGPDDSDVQITWFVDNTQVYTAKTSPREEQFNSTYRVVSVLPILHQPWLKGKEFKCKVNSKSLPSPIERTISKAKGQPHEPQVYVLPPAQEELSRNKVSVTCLIKSFHPPDIAVEWEITGQPEPENNYRTTPPQLDSDGTYFVYSKLSVDRSHWQRGNTYTCSVYHEALHSHHTQKSLTQSPGK"
  pKd: 5.56
- BINDER: "feline IgG1a S428Y/D312P/S434Y (antibody, part only; not given: Variable domains, not shown: another chain or arm of the molecule; small tags and cut ends) constant: ASTTAPSVFPLAPSCGTTSGATVALACLVLGYFPEPVTVSWNSGALTSGVHTFPAVLQASGLYSLSSMVTVPSSRWLSDTFTCNVAHPPSNTKVDKTVRKTDHPPGPKPCDCPKCPPPEMLGGPSIFIFPPKPKDTLSISRTPEVTCLVVDLGPDDSDVQITWFVDNTQVYTAKTSPREEQFNSTYRVVSVLPILHQPWLKGKEFKCKVNSKSLPSPIERTISKAKGQPHEPQVYVLPPAQEELSRNKVSVTCLIKSFHPPDIAVEWEITGQPEPENNYRTTPPQLDSDGTYFVYSKLSVDRSHWQRGNTYTCSVYHEALHYHHTQKSLTQSPGK"
  pKd: 6.06
- BINDER: "feline IgG1a S252H/S428M/Q311Y (antibody, part only; not given: Variable domains, not shown: another chain or arm of the molecule) constant: ASTTAPSVFPLAPSCGTTSGATVALACLVLGYFPEPVTVSWNSGALTSGVHTFPAVLQASGLYSLSSMVTVPSSRWLSDTFTCNVAHPPSNTKVDKTVRKTDHPPGPKPCDCPKCPPPEMLGGPSIFIFPPKPKDTLHISRTPEVTCLVVDLGPDDSDVQITWFVDNTQVYTAKTSPREEQFNSTYRVVSVLPILHYDWLKGKEFKCKVNSKSLPSPIERTISKAKGQPHEPQVYVLPPAQEELSRNKVSVTCLIKSFHPPDIAVEWEITGQPEPENNYRTTPPQLDSDGTYFVYSKLSVDRSHWQRGNTYTCSVMHEALHSHHTQKSLTQSPGK"
  pKd: 6.85
- BINDER: "feline IgG1a S252F (antibody, part only; not given: Variable domains, not shown: another chain or arm of the molecule) constant: ASTTAPSVFPLAPSCGTTSGATVALACLVLGYFPEPVTVSWNSGALTSGVHTFPAVLQASGLYSLSSMVTVPSSRWLSDTFTCNVAHPPSNTKVDKTVRKTDHPPGPKPCDCPKCPPPEMLGGPSIFIFPPKPKDTLFISRTPEVTCLVVDLGPDDSDVQITWFVDNTQVYTAKTSPREEQFNSTYRVVSVLPILHQDWLKGKEFKCKVNSKSLPSPIERTISKAKGQPHEPQVYVLPPAQEELSRNKVSVTCLIKSFHPPDIAVEWEITGQPEPENNYRTTPPQLDSDGTYFVYSKLSVDRSHWQRGNTYTCSVSHEALHSHHTQKSLTQSPGK"
  pKd: 5.22

Just for reference, patent US20240400708A1 is where these values come from.
